Tested on: Botrytis cinera
Assay: Serial dilution test, Minimum Inhibitory Concentration, Botrytis cinera (BOC)
Assay type: cell-based
Settings: Botrytis cinera, total inhibition of mycelial growth; read-out: MIC (BOC)
Protocol: Determination of Minimum Inhibitory Concentration by Test Compounds in the Serial Dilution Test with Botrytis cinera (BOC), and Hansenula anomala (HNA). The MIC (Minimum Inhibitory Concentration) value, which indicates the lowest concentration of the active ingredient in the growth medium which causes a total inhibition of mycelial growth, is determined by serial dilution tests. […]
quantity_name: MIC (µg/mL)
Answer in µg/mL, number only, no unit symbol.

// known answers, use as guide
[[record]]
molecule = "COC(=O)/C=C(/OC)[C@H](C)[C@H](/C=C/c1csc(C(C)OC)n1)OC (stereo partly shown)"
measured_number = 0.15

[[record]]
molecule = "CO/N=C(/C)c1nc(/C=C/[C@H](OC)[C@@H](C)/C(=C\\C(=O)OC)OC)cs1 [8:(Z)-MCM]"
measured_number = 0.005

[[record]]
molecule = "CO/N=C(\\C)c1nc(/C=C/[C@H](OC)[C@@H](C)/C(=C\\C(=O)OC)OC)cs1 [8:(E)-MCM]"
measured_number = 0.0025


Please find the next molecule below.
Look at this molecule and give its reported MIC. COC(=O)/C=C(/OC)[C@H](C)[C@H](/C=C/c1csc(/C(C)=N/OCc2ccccc2)n1)OC 0.04

Attribution: patent US6197802A
